- experiment.notes: Oral bioavailability / oral pharmacokinetics of oxycodone conjugates in rats
- condition.set: relative to OXY = 100, n = 4 animals, analysis by LC-MS
experimental.endpoint: Oral (% AUC)

{"substance": "Pro-Pro-Val-OC", "output.unit": "% AUC", "measurement": 152}
{"substance": "Phe-Phe-Val-OC", "output.unit": "% AUC", "measurement": 32}
{"substance": "Pro-Pro-Ile-OC", "output.unit": "% AUC", "measurement": 85}
{"substance": "Tyr-Tyr-Pro-OC", "output.unit": "% AUC", "measurement": 59}
{"substance": "Val-Val-Phe-OC", "output.unit": "% AUC", "measurement": 120}
{"substance": "Tyr-Tyr-Phe-OC", "output.unit": "% AUC", "measurement": 73}
{"substance": "Phe-Phe-Ile-OC", "output.unit": "% AUC", "measurement": 59}
{"substance": "Tyr-Tyr-Ile-OC", "output.unit": "% AUC", "measurement": 85}
{"substance": "Tyr-Tyr-Val-OC", "output.unit": "% AUC", "measurement": 124}
